# Tested on: Trichoderma virens ATCC 9645
# EXPERIMENTAL PROTOCOL: growth yield (OD600) with compound + IPBC relative to untreated control; higher = less growth inhibition
# MEASUREMENT CONDITIONS: compound concentration: 100 uM; IPBC concentration: 200 ng/ml; 72 h
Structures can show the parent of a compound that is named as a salt. Hit rate of the full screen: of about 1,300 compounds, about 130 (10%) showed an effect of 50% or more. Shown is part of a subset that was picked to be rich in strong results.
VALUE KIND: growth yield (%)

CCCCOc1ccc(OCCCN2CCOCC2)cc1 [Pramoxine hydrochloride] + CCCCNC(=O)OCC#CI [3-iodo-2-propynyl butylcarbamate (IPBC)] ... 94
C#Cc1cccc(Nc2ncnc3cc(OCCOC)c(OCCOC)cc23)c1 [Erlotinib] + CCCCNC(=O)OCC#CI [3-iodo-2-propynyl butylcarbamate (IPBC)] ... 99.3
O=C(CCCCCCC(=O)Nc1ccccc1)NO [Vorinostat] + CCCCNC(=O)OCC#CI [3-iodo-2-propynyl butylcarbamate (IPBC)] ... 99.5
O=C1CCC(N2C(=O)c3ccccc3C2=O)C(=O)N1 (stereo not given) [Thalidomide] + CCCCNC(=O)OCC#CI [3-iodo-2-propynyl butylcarbamate (IPBC)] ... 101
C[C@@H]1CC[C@H]2[C@@H](C)C(=O)O[C@@H]3O[C@@]4(C)CC[C@@H]1[C@]32OO4 [Artemisinin] + CCCCNC(=O)OCC#CI [3-iodo-2-propynyl butylcarbamate (IPBC)] ... 76.3
